// values below are reported half-life
protocol description: Half life in human liver microsomes
Format: ADME, microsome
experimental readout: half-life (min)

chemical string | experimental readout | result number
COC(=O)Nc1ccc2c(c1)NC(=O)C[C@@H](C)CCC[C@H](NC(=O)c1c(F)cc(C)cc1F)c1nc-2c(Cl)[nH]1 | half-life | 45
COC(=O)Nc1ccc2c(c1)NC(=O)C[C@@H](C)/C=C/C[C@H](NC(=O)c1c(F)cc(C)cc1F)c1nc-2c(Cl)[nH]1 | half-life | 35
COC(=O)Nc1ccc2c(c1)NC(=O)CC/C=C/C[C@H](NC(=O)c1c(F)cc(C)cc1F)c1nc-2c(Cl)[nH]1 | half-life | 17
COC(=O)Nc1ccc2c(c1)NC(=O)[C@H](C)CCC[C@H](NC(=O)c1c(F)cc(C)cc1F)c1nc-2c(Cl)[nH]1 | half-life | 8

----------
protocol description: Oral bioavailability in Sprague-Dawley rat at 1.09 mg/kg administered as cassette dose by LC-MS/MS analysis
Type: ADME, organism-based
study conditions: in vivo

chemical string | bioavailability (%)
COC(=O)Nc1ccc2c(c1)NC(=O)CC/C=C/C[C@H](NC(=O)/C=C/c1cc(Cl)ccc1-n1cnnn1)c1nc-2c(Cl)[nH]1 | 0.2

----------
protocol description: Protein binding in human plasma
Format: ADME, cell-free
study conditions: read-out: PPB (converted)

chemical string | fraction unbound
COC(=O)Nc1ccc2c(c1)NC(=O)C[C@@H](C)CCC[C@H](NC(=O)/C=C/c1cc(Cl)ccc1-n1cnnn1)c1nc-2c[nH]1 | 0.02
COC(=O)Nc1ccc2c(c1)NC(=O)CCCCC[C@H](NC(=O)/C=C/c1cc(Cl)ccc1-n1cnnn1)c1nc-2c[nH]1 | 0.038

----------
protocol description: Clearance in Sprague-Dawley rat at 0.55 mg/kg, iv or 1.11 mg/kg, po administered as cassette dose by LC-MS/MS analysis
Assay type: ADME, organism-based
study conditions: in vivo

chemical string | clearance
COC(=O)Nc1ccc2c(c1)NC(=O)CC/C=C/C[C@H](NC(=O)c1c(F)cc(C)cc1F)c1nc-2c(Cl)[nH]1 | 5.6 mL/min/kg

----------
protocol description: AUC in Sprague-Dawley rat at 0.55 mg/kg, iv or 1.09 mg/kg, po by LC-MS/MS analysis
Assay type: ADME, organism-based
study conditions: in vivo

chemical string | value unit | AUC
COC(=O)Nc1ccc2c(c1)NC(=O)CC/C=C/C[C@H](NC(=O)/C=C/c1cc(Cl)ccc1-n1cnnn1)c1nc-2c(Cl)[nH]1 | nM·h | 2

----------
protocol description: Volume of distribution at steady state in Sprague-Dawley rat at 0.55 mg/kg, iv or 1.11 mg/kg, po administered as cassette dose by LC-MS/MS analysis
Type: ADME, organism-based
study conditions: in vivo, read-out: Vdss
experimental readout: Vd (L/kg)

chemical string | result number
COC(=O)Nc1ccc2c(c1)NC(=O)CC/C=C/C[C@H](NC(=O)c1c(F)cc(C)cc1F)c1nc-2c(Cl)[nH]1 | 0.4

----------
protocol description: Half life in Sprague-Dawley rat at 0.75 mg/kg, iv or 1.5 mg/kg, po administered as cassette dose by LC-MS/MS analysis
Format: ADME, organism-based
study conditions: in vivo

chemical string | half-life / min
COC(=O)Nc1ccc2c(c1)NC(=O)C[C@@H](C)/C=C/C[C@H](NC(=O)c1c(F)cc(C)cc1F)c1nc-2c(Cl)[nH]1 | 54

----------
protocol description: Clearance in Sprague-Dawley rat at 0.75 mg/kg, iv or 1.5 mg/kg, po administered as cassette dose by LC-MS/MS analysis
Type: ADME, organism-based
study conditions: in vivo

chemical string | value unit | clearance
COC(=O)Nc1ccc2c(c1)NC(=O)C[C@@H](C)/C=C/C[C@H](NC(=O)c1c(F)cc(C)cc1F)c1nc-2c(Cl)[nH]1 | mL/min/kg | 6

----------
Test system: Plasma
protocol description: Anticoagulant activity in human platelet rich plasma assessed as plasma concentration required for 50% increase in clotting time by aPTT assay
Assay type: functional
experimental readout: EC1.5 (µM)

compound | result number
COC(=O)Nc1ccc2c(c1)NC(=O)[C@H](C)CCC[C@H](NC(=O)c1c(F)cc(C)cc1F)c1nc-2c(Cl)[nH]1 | 2
COC(=O)Nc1ccc2c(c1)NC(=O)CC/C=C/C[C@H](NC(=O)c1c(F)cc(C)cc1F)c1nc-2c(Cl)[nH]1 | 6.6
COC(=O)Nc1ccc2c(c1)NC(=O)CCC(C)CC[C@H](NC(=O)/C=C/c1cc(Cl)ccc1-n1cnnn1)c1nc-2c[nH]1 (single isomer, unassigned; diastereomer A) | 2.5
COC(=O)Nc1ccc2c(c1)NC(=O)C(C)CCCC[C@H](NC(=O)/C=C/c1cc(Cl)ccc1-n1cnnn1)c1nc-2c[nH]1 (single isomer, unassigned; diastereomer A) | 5.3
COC(=O)Nc1ccc2c(c1)NC(=O)[C@H](C(C)C)CCC[C@H](NC(=O)/C=C/c1cc(Cl)ccc1-n1cnnn1)c1nc-2c[nH]1 | 1.1
COC(=O)Nc1ccc2c(c1)NC(=O)[C@H](C)CCC[C@H](NC(=O)/C=C/c1cc(Cl)ccc1-n1cnnn1)c1nc-2c(Cl)[nH]1 | 1.2
COC(=O)Nc1ccc2c(c1)NC(=O)[C@@H](C)CCC[C@H](NC(=O)/C=C/c1cc(Cl)ccc1-n1cnnn1)c1nc-2c[nH]1 | 0.63
COC(=O)Nc1ccc2c(c1)NC(=O)C(C)CCCC[C@H](NC(=O)/C=C/c1cc(Cl)ccc1-n1cnnn1)c1nc-2c[nH]1 (single isomer, unassigned; diastereomer B) | 32
COC(=O)Nc1ccc2c(c1)NC(=O)C[C@@H](C)CCC[C@H](NC(=O)c1c(F)cc(C)cc1F)c1nc-2c(Cl)[nH]1 | 12
COC(=O)Nc1ccc2c(c1)NC(=O)C[C@H](C)CCC[C@H](NC(=O)/C=C/c1cc(Cl)ccc1-n1cnnn1)c1nc-2c[nH]1 | 27
COC(=O)Nc1ccc2c(c1)NC(=O)C[C@@H](C)/C=C/C[C@H](NC(=O)/C=C/c1cc(Cl)ccc1-n1cnnn1)c1nc-2c[nH]1 | 0.38
COC(=O)Nc1ccc2c(c1)NC(=O)C[C@@H](C)CCC[C@H](NC(=O)/C=C/c1cc(Cl)ccc1-n1cnnn1)c1nc-2c(Cl)[nH]1 | 0.57
COC(=O)Nc1ccc2c(c1)NC(=O)C(C)C/C=C/C[C@H](NC(=O)/C=C/c1cc(Cl)ccc1-n1cnnn1)c1nc-2c[nH]1 (single isomer, unassigned; diastereomer B) | 1.2
COC(=O)Nc1ccc2c(c1)NC(=O)C[C@@H](C)CCC[C@H](NC(=O)/C=C/c1cc(Cl)ccc1-n1cnnn1)c1nc-2c[nH]1 | 1.1
COC(=O)Nc1ccc2c(c1)NC(=O)[C@@H](C(C)C)CCC[C@H](NC(=O)/C=C/c1cc(Cl)ccc1-n1cnnn1)c1nc-2c[nH]1 | 64
CC[C@H]1CCC[C@H](NC(=O)/C=C/c2cc(Cl)ccc2-n2cnnn2)c2nc(c[nH]2)-c2ccc(NC(=O)OC)cc2NC1=O | 4
COC(=O)Nc1ccc2c(c1)NC(=O)[C@H](C)CCC[C@H](NC(=O)/C=C/c1cc(Cl)ccc1-n1cnnn1)c1nc-2c[nH]1 | 0.39
COC(=O)Nc1ccc2c(c1)NC(=O)CC(C)CC[C@H](NC(=O)/C=C/c1cc(Cl)ccc1-n1cnnn1)c1nc-2c[nH]1 (single isomer, unassigned; diastereomer B) | 31
COC(=O)Nc1ccc2c(c1)NC(=O)C[C@H](C)/C=C/C[C@H](NC(=O)/C=C/c1cc(Cl)ccc1-n1cnnn1)c1nc-2c[nH]1 | 0.98
COC(=O)Nc1ccc2c(c1)NC(=O)C[C@@H](C)/C=C/C[C@H](NC(=O)c1c(F)cc(C)cc1F)c1nc-2c(Cl)[nH]1 | 2.7
COC(=O)Nc1ccc2c(c1)NC(=O)CC(C)CC[C@H](NC(=O)/C=C/c1cc(Cl)ccc1-n1cnnn1)c1nc-2c[nH]1 (single isomer, unassigned; diastereomer A) | 37
CC[C@@H]1CCC[C@H](NC(=O)/C=C/c2cc(Cl)ccc2-n2cnnn2)c2nc(c[nH]2)-c2ccc(NC(=O)OC)cc2NC1=O | 0.52
COC(=O)Nc1ccc2c(c1)NC(=O)CCC(C)CC[C@H](NC(=O)/C=C/c1cc(Cl)ccc1-n1cnnn1)c1nc-2c[nH]1 (single isomer, unassigned; diastereomer B) | 12
COC(=O)Nc1ccc2c(c1)NC(=O)C(C)C/C=C/C[C@H](NC(=O)/C=C/c1cc(Cl)ccc1-n1cnnn1)c1nc-2c[nH]1 (single isomer, unassigned; diastereomer A) | 0.67

----------
// values below are reported Papp B→A
protocol description: Permeability of the compound from basolateral to apical side in human Caco2 cells
Type: ADME, cell-based
study conditions: Caco-2, read-out: permeability
experimental readout: Papp B→A (×10⁻⁶ cm/s)

chemical string | value unit | result number
COC(=O)Nc1ccc2c(c1)NC(=O)CC/C=C/C[C@H](NC(=O)/C=C/c1cc(Cl)ccc1-n1cnnn1)c1nc-2c(Cl)[nH]1 | ×10⁻⁶ cm/s | 5.8
COC(=O)Nc1ccc2c(c1)NC(=O)[C@H](C)CCC[C@H](NC(=O)c1c(F)cc(C)cc1F)c1nc-2c(Cl)[nH]1 | ×10⁻⁶ cm/s | 11.1
COC(=O)Nc1ccc2c(c1)NC(=O)C[C@@H](C)/C=C/C[C@H](NC(=O)c1c(F)cc(C)cc1F)c1nc-2c(Cl)[nH]1 | ×10⁻⁶ cm/s | 18.9
COC(=O)Nc1ccc2c(c1)NC(=O)CC/C=C/C[C@H](NC(=O)c1c(F)cc(C)cc1F)c1nc-2c(Cl)[nH]1 | ×10⁻⁶ cm/s | 20
COC(=O)Nc1ccc2c(c1)NC(=O)C[C@@H](C)CCC[C@H](NC(=O)c1c(F)cc(C)cc1F)c1nc-2c(Cl)[nH]1 | ×10⁻⁶ cm/s | 25.1
